Data origin, for the record: patent US10098902B2

Listing: pIC50 of selected compounds
target: human arginase II (ARG II) (Homo sapiens (Human), UniProt P78540)
Sequence (P78540 23-354): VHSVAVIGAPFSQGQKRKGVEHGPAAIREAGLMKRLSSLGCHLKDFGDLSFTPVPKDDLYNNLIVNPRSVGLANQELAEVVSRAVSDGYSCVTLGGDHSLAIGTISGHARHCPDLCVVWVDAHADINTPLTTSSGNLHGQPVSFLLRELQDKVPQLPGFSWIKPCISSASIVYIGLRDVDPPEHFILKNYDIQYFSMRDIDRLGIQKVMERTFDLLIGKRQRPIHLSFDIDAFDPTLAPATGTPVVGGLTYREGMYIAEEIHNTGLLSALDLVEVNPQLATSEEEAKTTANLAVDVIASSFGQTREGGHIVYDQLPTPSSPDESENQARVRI
pIC50: −log10 of the molar value.

For orientation, consider the following solved cases.
N[C@@]1(C(=O)O)CCC[C@H]1CCCB(O)O; < 5.30
Cc1ccncc1N1C[C@H](CCCB(O)O)[C@](N)(C(=O)O)C1; 5.70 to 6.00

Q: Write down the reported pIC50 (system: human arginase II (ARG II) (Homo sapiens (Human), UniProt P78540)) of N[C@@]1(C(=O)O)CN(CC2Cc3ccc(C(F)(F)F)cc3CN2)C[C@@H]1CCCB(O)O (stereo partly drawn)
Ans: 6.60 to 10.00

Q: Write down the reported pIC50 (system: human arginase II (ARG II) (Homo sapiens (Human), UniProt P78540)) of N[C@@]1(C(=O)O)CN(C2CCNCC2)C[C@@H]1CCCB(O)O
Ans: 6.00 to 6.60

Q: Write down the reported pIC50 (system: human arginase II (ARG II) (Homo sapiens (Human), UniProt P78540)) of N[C@@]1(C(=O)O)CCNC[C@H]1CCCB(O)O
Ans: 5.30 to 5.70

Q: Write down the reported pIC50 (system: human arginase II (ARG II) (Homo sapiens (Human), UniProt P78540)) of N[C@@]1(C(=O)O)CN(c2ncnc3nc[nH]c23)C[C@@H]1CCCB(O)O
Ans: 5.70 to 6.00

Q: Write down the reported pIC50 (system: human arginase II (ARG II) (Homo sapiens (Human), UniProt P78540)) of N[C@@]1(C(=O)O)CNC[C@H]1CCCB(O)O
Ans: 5.70 to 6.00

Q: Write down the reported pIC50 (system: human arginase II (ARG II) (Homo sapiens (Human), UniProt P78540)) of N[C@@]1(C(=O)O)CN(Cc2ccccn2)C[C@@H]1CCCB(O)O
Ans: 5.70 to 6.00

Q: Write down the reported pIC50 (system: human arginase II (ARG II) (Homo sapiens (Human), UniProt P78540)) of N[C@@]1(C(=O)O)CN(C(=O)C2Cc3ccc(Cl)cc3CN2)C[C@@H]1CCCB(O)O (stereo partly drawn)
Ans: 6.60 to 10.00
